- SYSTEM NAME: Alpha-1B adrenergic receptor (Homo sapiens, UniProt P35368)
- Sequence (P35368 whole entry): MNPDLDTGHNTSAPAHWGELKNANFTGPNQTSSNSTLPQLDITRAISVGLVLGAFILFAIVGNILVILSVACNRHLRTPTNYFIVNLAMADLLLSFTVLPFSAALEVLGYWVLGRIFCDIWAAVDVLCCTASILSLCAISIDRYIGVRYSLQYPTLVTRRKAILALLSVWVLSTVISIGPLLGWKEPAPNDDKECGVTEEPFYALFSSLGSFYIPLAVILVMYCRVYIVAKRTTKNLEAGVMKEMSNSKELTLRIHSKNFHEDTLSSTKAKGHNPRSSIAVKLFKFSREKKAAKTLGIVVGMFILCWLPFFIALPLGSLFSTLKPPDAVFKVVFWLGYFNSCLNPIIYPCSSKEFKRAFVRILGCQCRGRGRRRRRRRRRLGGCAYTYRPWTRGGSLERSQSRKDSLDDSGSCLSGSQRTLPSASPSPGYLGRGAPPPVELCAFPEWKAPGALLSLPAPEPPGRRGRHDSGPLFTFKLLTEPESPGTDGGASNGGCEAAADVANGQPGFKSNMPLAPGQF
pKi: −log10 of the molar value.
Assign class by pKi: not lower than 6 means 1 (yes); lower than 6 means 0 (no).

>  <MOLECULE>
Cc1ccc(C(C(=O)NCCCN2CCN(c3ccccc3C)CC2)c2ccc(C)cc2)cc1

>  <CLASS ASSIGNMENT>
1 (yes)

$$$$
>  <MOLECULE>
Cc1ccc(C(C(=O)NCCCN2CCC(C#N)(c3ccccc3Cl)CC2)c2ccc(C)cc2)cc1

>  <CLASS ASSIGNMENT>
1 (yes)

$$$$
>  <MOLECULE>
COC(=O)C1(c2ccccc2)CCN(CCCNC(=O)C(C)c2ccc([N+](=O)[O-])cc2)CC1 (configuration not stated)

>  <CLASS ASSIGNMENT>
0 (no)

$$$$
>  <MOLECULE>
Cc1ccc(C(C(=O)NCCCN2CCC(C#N)(c3ccccc3C(F)(F)F)CC2)c2ccc(C)cc2)cc1

>  <CLASS ASSIGNMENT>
0 (no)

$$$$
>  <MOLECULE>
COC(=O)C1(c2ccccc2)CCN(CCCNC(=O)Cc2ccc(C)cc2)CC1

>  <CLASS ASSIGNMENT>
0 (no)

$$$$
>  <MOLECULE>
COC(=O)C1(c2ccccc2)CCN(CCCNC(=O)Cc2ccc([N+](=O)[O-])cc2)CC1

>  <CLASS ASSIGNMENT>
0 (no)

$$$$
>  <MOLECULE>
Cc1ccc(C(C(=O)NCCCN2CCC(C#N)(c3ccccc3C)CC2)C(C)C)cc1 (configuration not stated)

>  <CLASS ASSIGNMENT>
1 (yes)

$$$$
>  <MOLECULE>
Cc1ccc(C(C(=O)NCCCN2CCC(C#N)(c3ccccc3C)CC2)c2ccc(C)cc2)cc1

>  <CLASS ASSIGNMENT>
1 (yes)

$$$$
>  <MOLECULE>
COC(=O)C1(c2ccccc2)CCN(CCNC(=O)CCc2ccc([N+](=O)[O-])cc2)CC1

>  <CLASS ASSIGNMENT>
0 (no)

$$$$
